molecular target: UniProtKB Q99436
Peptide text beside a SMILES is read from it.
observation.type: IC50 (µM)
Just the number please, in µM, no unit attached.

[Q] Find the measured IC50: item CC[C@H](C)[C@@H]1NC(=O)[C@@H]2CCCN2C(=O)[C@H](CCCCN)NC(=O)[C@H](CCCCN)NC(=O)[C@H](CO)NC(=O)[C@H](Cc2ccc(O)cc2)NC(=O)[C@H]([C@@H](C)O)NC(=O)[C@@H](NC(=O)[C@H](CCCNC(=N)N)NC(=O)CN)CSSC[C@@H](C(=O)N[C@@H](Cc2ccccc2)C(=O)N2CCC[C@H]2C(=O)N[C@@H](CC(=O)O)C(=O)O)NC1=O [Analogue VI] (HELM PEPTIDE1{G.R.C.T.Y.S.K.K.P.I.C.F.P.D}$PEPTIDE1,PEPTIDE1,3:R3-11:R3$$$V2.0) , target or system UniProtKB Q99436.
[A] 93.1

Data credit: paper PMC3934894
